Values from patent US20230122344A1

target: Human M4 (Homo sapiens); experiment: mAChR M4 cell-based functional assay (calcium flux, antagonism of EC80 acetylcholine response); conditions: M4/Gqi5/CHO-K1 cells; decrease of response elicited by EC80 acetylcholine
We label by threshold. Values of IC50 strictly beneath 0.7 nM are true. Values of 0.7 nM and up are false.

Take a look at these entries with their results.
OC1(CN2C[C@H]3C[C@H](Nc4cc(C(F)F)c(-c5cc(F)cc(F)c5F)nn4)C[C@H]3C2)CCCCC1 [compound 54]	false
COc1ccc(F)cc1-c1nnc(N[C@H]2C[C@@H]3CN(CC4CCOCC4)C[C@@H]3C2)cc1C(F)F [compound 42]	true
CC1(CN2C[C@H]3C[C@H](Nc4nnc(-c5cc(F)ccc5F)cc4C(F)F)C[C@H]3C2)CCOCC1 [compound 79]	false

Req: Input [2H]C([2H])(C1CCOCC1)N1C[C@H]2C[C@H](Nc3cc(C(F)F)c(-c4cc(F)cc(F)c4F)nn3)C[C@H]2C1 [compound 40] ; condition: IC50 strictly below 0.7 nM. Does it hold?
Resp: false

Req: Please state whether IC50 is below 0.7 nM for [2H]C([2H])(C1CCOCC1)N1C[C@H]2C[C@H](Nc3cc(C)c(-c4cc(F)ccc4F)nn3)C[C@H]2C1 [compound 17]
Resp: true

Req: Here's an entry: Cc1ccc(F)cc1-c1nnc(N[C@H]2C[C@@H]3CN(CC4CCOCC4)C[C@@H]3C2)cc1C(F)F [compound 43] . Is its IC50 below 0.7 nM?
Resp: true

###

Target: Human M4 (Homo sapiens)
Sequence (P08173 1-479): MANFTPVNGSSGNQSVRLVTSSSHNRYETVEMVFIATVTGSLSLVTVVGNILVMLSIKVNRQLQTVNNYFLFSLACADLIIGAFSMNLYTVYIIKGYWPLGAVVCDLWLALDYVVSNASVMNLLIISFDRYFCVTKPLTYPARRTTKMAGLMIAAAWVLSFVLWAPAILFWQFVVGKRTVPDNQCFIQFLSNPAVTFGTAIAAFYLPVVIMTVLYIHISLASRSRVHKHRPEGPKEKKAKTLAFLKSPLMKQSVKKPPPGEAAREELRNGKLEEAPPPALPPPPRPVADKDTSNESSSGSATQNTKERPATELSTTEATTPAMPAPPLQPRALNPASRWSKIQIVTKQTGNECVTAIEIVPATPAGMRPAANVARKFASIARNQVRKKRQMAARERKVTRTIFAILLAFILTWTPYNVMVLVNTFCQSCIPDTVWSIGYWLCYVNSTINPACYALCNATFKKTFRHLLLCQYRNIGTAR
Experiment: mAChR M4 cell-based functional assay (calcium flux, antagonism of EC80 acetylcholine response)
Conditions: M4/Gqi5/CHO-K1 cells; decrease of response elicited by EC80 acetylcholine
measuredMetric: pIC50
Remember, pIC50 is on a log scale: it is -log10 of the molar concentration.

Fc1ccc(Cl)c(-c2nnc(N[C@H]3C[C@@H]4CN(CC5CCOCC5)C[C@@H]4C3)cc2C(F)F)c1	9.19
Fc1cc(F)c(F)c(-c2nnc(N[C@H]3C[C@@H]4CN(CC5CCCOC5)C[C@@H]4C3)cc2C(F)F)c1 (single isomer, unassigned) [compound 49]	8.79
Fc1ccc(F)c(-c2cc(C(F)F)c(N[C@H]3C[C@@H]4CN(C[C@@H]5COCCO5)C[C@@H]4C3)nn2)c1	8.30
Cc1cc(N[C@H]2C[C@@H]3CN(CC4CCOCC4)C[C@@H]3C2)nnc1-c1cc(F)cc(F)c1F	9.30
Fc1ccc(C(F)(F)F)c(-c2cc(C(F)F)c(N[C@H]3C[C@@H]4CN(CC5CCOCC5)C[C@@H]4C3)nn2)c1	8.31

The compound "Cc1c(-c2ccc(F)cc2)nnc(N[C@H]2C[C@@H]3CN(CC4CCOCC4)C[C@@H]3C2)c1C#N" , tested on Human M4 (Homo sapiens), showed pIC50 of 8.46

Test item "[2H]C([2H])(C1CCOCC1)N1C[C@H]2C[C@H](Nc3nnc(-c4cc(F)cc(F)c4F)cc3C(C)(C)C)C[C@H]2C1" ; Human M4 (Homo sapiens); reported pIC50 was 5.99

Tested on Human M4 (Homo sapiens): "[2H]C([2H])(C1CCOCC1)N1C[C@H]2C[C@H](Nc3nnc(-c4cc(F)ccc4F)cc3C3CCC3)C[C@H]2C1" . Observed pIC50: 6.94

Form field pIC50 for item "[2H]C([2H])(C1CCOCC1)N1C[C@H]2C[C@H](Nc3cc(C(F)F)c(-c4cc(F)ccc4C)nn3)C[C@H]2C1" on Human M4 (Homo sapiens): 8.56

Given the compound Fc1cc(F)c(F)c(-c2nnc(N[C@H]3C[C@@H]4CN(CC5CCCCO5)C[C@@H]4C3)cc2C(F)F)c1 (single isomer, unassigned) [compound 46] and test system Human M4 (Homo sapiens), the measured pIC50 is 8.70

Human M4 (Homo sapiens) pIC50 of "[2H]C([2H])(C1CCOCC1)N1C[C@H]2C[C@H](Nc3nnc(-c4cccc(F)c4)cc3C)C[C@H]2C1" is 8.91

Observed pIC50, Human M4 (Homo sapiens), "[2H]C([2H])(C1CCOCC1)N1C[C@H]2C[C@H](Nc3cc(C)c(-c4cc(F)ccc4Cl)nn3)C[C@H]2C1" : 9.36

###

Consider the following molecules and their measured remaining activity at 30 µM readings.
target: Human M4 (Homo sapiens, UniProt P08173); construct: expressed in transfected cells; host or cells: CHO-K1 (ATCC), co-transfected with chimeric G protein Gqi5; assay: mAChR M4 cell-based functional assay (calcium flux, antagonism of EC80 acetylcholine response); conditions: CHO-K1, % ACh maximum at 30 μM; M4/Gqi5/CHO-K1 cells; read-out: Human M4 Emin
Answer format: numeric, % implied, no suffix.

Fc1ccc(F)c(-c2cc(C(F)F)c(N[C@H]3C[C@@H]4CN(CC5CCOCC5)C[C@@H]4C3)nn2)c1 [compound 58]	3
Fc1cc(F)c(F)c(-c2nnc(N[C@H]3C[C@@H]4CN(CCC5CCOCC5)C[C@@H]4C3)cc2C(F)F)c1 [compound 52]	2
[2H]C([2H])(C1CCOCC1)N1C[C@H]2C[C@H](Nc3cc(C)c(-c4cc(F)ccc4Cl)nn3)C[C@H]2C1 [compound 18]	3

Lab note: molecule [2H]C([2H])(C1CCOCC1)N1C[C@H]2C[C@H](Nc3nnc(-c4cc(F)ccc4C)cc3C3CCC3)C[C@H]2C1 [compound 31] tested on Human M4 (Homo sapiens, UniProt P08173); recorded remaining activity at 30 µM was 3

###

molecular target: Human M4 (Homo sapiens); test: mAChR M4 cell-based functional assay (calcium flux, antagonism of EC80 acetylcholine response); conditions: M4/Gqi5/CHO-K1 cells; decrease of response elicited by EC80 acetylcholine
IC50 overview
Dear colleague, please return just the value in nM, with no unit written.

# annotated cases, reported IC50 shown
[2H]C([2H])(C1CCOCC1)N1C[C@H]2C[C@H](Nc3nnc(-c4cc(F)cc(F)c4F)cc3C3CC3)C[C@H]2C1	5.05
[2H]C([2H])(C1CCOCC1)N1C[C@H]2C[C@H](Nc3nnc(-c4ccccc4)cc3C)C[C@H]2C1	1.63

// IC50 lookup, molecule = "Cc1c(-c2cc(F)ccc2F)nnc(N[C@H]2C[C@@H]3CN(CC4CCOCC4)C[C@@H]3C2)c1C#N" , result: 7.69

###

molecular target: Human M4 (Homo sapiens); test: mAChR M4 cell-based functional assay (calcium flux, antagonism of EC80 acetylcholine response); settings: M4/Gqi5/CHO-K1 cells; decrease of response elicited by EC80 acetylcholine
measuredMetric: pIC50
Quick note: pIC50 values are minus log10 of concentrations in mol/L.

Consider the worked cases shown below.
Fc1cc(F)c(F)c(-c2nnc(N[C@H]3C[C@@H]4CN(CC5CCCOC5)C[C@@H]4C3)cc2C(F)F)c1 (single isomer, unassigned) [compound 48]	8.89
COc1cc(-c2ccc(F)cc2)nnc1N[C@H]1C[C@@H]2CN(CC3CCOCC3)C[C@@H]2C1 [compound 3]	7.32
COc1cc(-c2ccc3nn(C)cc3c2C)nnc1N[C@H]1C[C@@H]2CN(CC3CCOCC3)C[C@@H]2C1 [compound 8]	8.69
Cc1cc(N[C@H]2C[C@@H]3CN(CC4CCOCC4)C[C@@H]3C2)nnc1-c1ccc2nn(C)cc2c1C [compound 16]	8.97
Cc1c(-c2cccc(F)c2)nnc(N[C@H]2C[C@@H]3CN(CC4CCOCC4)C[C@@H]3C2)c1C#N [compound 69]	8.07

Summary for this molecule, Cc1c(Cl)nnc(N[C@H]2C[C@@H]3CN(CC4CCOCC4)C[C@@H]3C2)c1C#N [compound 65] : pIC50 is 5.53

Note to self: pIC50 recorded for Fc1cc(F)c(F)c(-c2nnc(N[C@H]3C[C@@H]4CN(CC5CCCCO5)C[C@@H]4C3)cc2C(F)F)c1 (single isomer, unassigned) [compound 47] was 8.69

pIC50 recorded for this molecule, Fc1ccc(F)c(-c2cc(C(F)F)c(N[C@H]3C[C@@H]4CN(C[C@H]5COCCO5)C[C@@H]4C3)nn2)c1 [compound 81] , is 6.74
